biological target: AKT1 WT (Homo sapiens); experiment: Live cell target engagement by NanoBRET competitive probe displacement, AKT1 WT; details: transfected HEK293 cells, 2 h at 37° C., read-out: AKT1 WT IC50: GeoMean IC50
Sequence (P31749 whole entry): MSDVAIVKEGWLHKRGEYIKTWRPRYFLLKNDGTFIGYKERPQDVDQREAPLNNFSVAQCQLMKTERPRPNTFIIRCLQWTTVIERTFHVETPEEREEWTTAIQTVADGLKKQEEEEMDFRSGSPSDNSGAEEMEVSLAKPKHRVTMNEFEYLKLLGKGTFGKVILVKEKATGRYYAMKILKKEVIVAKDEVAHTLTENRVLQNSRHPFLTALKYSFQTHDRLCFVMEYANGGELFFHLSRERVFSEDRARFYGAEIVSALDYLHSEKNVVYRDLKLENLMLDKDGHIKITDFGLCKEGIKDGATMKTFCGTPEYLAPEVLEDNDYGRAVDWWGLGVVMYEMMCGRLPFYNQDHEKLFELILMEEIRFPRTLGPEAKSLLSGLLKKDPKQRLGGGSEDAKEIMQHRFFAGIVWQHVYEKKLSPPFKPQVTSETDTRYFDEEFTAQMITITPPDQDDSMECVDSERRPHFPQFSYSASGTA
# key: entry, value: IC50

{"Compound": "Cc1cc(C)c2nc(-c3cccnc3N)n(-c3ccc4c(c3)CC[C@@H]4NC(=O)c3ccc(O)c(C=O)c3)c2n1 [Example 69]", "Tested on": "AKT1 WT (Homo sapiens)", "Assay readout": "IC50", "Result": "100 to 2000 nM"}
{"Compound": "Nc1ncccc1-c1nc2ccc(-n3cccn3)nc2n1-c1ccc2c(c1)CC[C@@H]2NC(=O)c1cc(C=O)c(O)cc1F [Example 105]", "Tested on": "AKT1 WT (Homo sapiens)", "Assay readout": "IC50", "Result": "10 to 100 nM"}

Request: // Input: Nc1ncccc1-c1nc2ccc(-c3ccccc3F)nc2n1-c1ccc2c(c1)CC[C@@H]2NC(=O)c1ccc(O)c(C=O)c1 [Example 21] . Output its IC50 only.
Response: 10 to 100 nM

Request: Give reported IC50 value for Nc1ncccc1-c1nc2ccc(-c3ncco3)nc2n1-c1ccc2c(c1)CC[C@@H]2NC(=O)c1cc(C=O)c(O)cc1F [Example 151]
Response: 10 to 100 nM
